TARGET_UNDER_TEST: dopamine D3 receptor (Rattus norvegicus, UniProt P19020)
Sequence (P19020 whole entry): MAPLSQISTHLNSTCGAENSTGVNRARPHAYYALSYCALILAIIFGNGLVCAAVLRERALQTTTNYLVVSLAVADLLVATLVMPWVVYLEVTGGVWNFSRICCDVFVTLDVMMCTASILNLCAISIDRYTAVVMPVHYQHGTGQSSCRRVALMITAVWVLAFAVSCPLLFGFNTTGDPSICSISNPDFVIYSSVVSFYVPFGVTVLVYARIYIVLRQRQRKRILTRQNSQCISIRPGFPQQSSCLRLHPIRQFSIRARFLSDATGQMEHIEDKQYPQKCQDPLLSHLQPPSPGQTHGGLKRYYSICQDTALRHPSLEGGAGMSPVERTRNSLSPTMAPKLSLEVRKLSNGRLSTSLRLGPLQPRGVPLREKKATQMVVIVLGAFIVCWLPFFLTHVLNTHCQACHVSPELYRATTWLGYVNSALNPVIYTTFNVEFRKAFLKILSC
REPORTED_PROPERTY: Ki (µM)

INSERT INTO assay_data (compound, reported_property, observed) VALUES
  ('Oc1cccc2c1CC[C@H]1[C@H]2CCCN1CCN1CCN(c2ccccc2)CC1 (racemic) [(±)-8]', 'Ki', 0.0149);
